# Target under test: T1, human γc on cells (KHYG-1, Ramos, HPB-ALL, Jurkat, PBMC) (human) (UniProt P31785)
# T1 sequence (looked up): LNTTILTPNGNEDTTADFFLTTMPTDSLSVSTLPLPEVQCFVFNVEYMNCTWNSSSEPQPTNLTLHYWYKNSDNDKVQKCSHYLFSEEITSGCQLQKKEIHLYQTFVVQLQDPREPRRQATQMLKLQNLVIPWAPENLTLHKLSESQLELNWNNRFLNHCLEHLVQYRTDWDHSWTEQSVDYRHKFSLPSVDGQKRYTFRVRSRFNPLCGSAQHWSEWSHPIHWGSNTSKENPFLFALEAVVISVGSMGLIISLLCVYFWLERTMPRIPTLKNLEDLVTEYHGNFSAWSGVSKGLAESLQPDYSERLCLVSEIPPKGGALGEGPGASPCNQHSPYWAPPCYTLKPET
# Experimental protocol: cell-based or functional assay
Observation type: p-STAT3 inhibition (%), IL-21 induced, Ramos B cells, flow cytometry
Don't forget the unit after the number, please.

// worked examples, p-STAT3 inhibition (%), IL-21 induced, Ramos B cells, flow cytometry included
Binder: SM-05I anti-γc ScFv (scFv, part only; not given: linker and E-tag, not shown: small tags and cut ends) scFv (part 1 of 2), part: QVQLQQSGAELAKPGASVKLSCKASGYTFTEYTMHWVKQSHGESLDWIGGIDPNTGGATYNQRFKGKATMTVDKSSSTAYMEFRSLTSEDSAVYYCARRRRYYGYALDNWGQGTSVTVSS scFv (part 2 of 2), part: DVLMTQTPLSLPVSLGDQASISCRSSQSIVHSNGNTYLEWYLQKPGQSPKLLIYKVSNRFSGVPDRFSGSGSGTDFTLKISRVEAEDLGVYYCFQDSHVPFTFGSGTKLEIKR
Reported value: 91%

Binder: SM-05H anti-γc ScFv (scFv, part only; not given: linker and E-tag, not shown: small tags and cut ends) scFv (part 1 of 2), part: QVQLQQSGPELVKPGASMNIFCKTSGYTFTEYTMHWVKQSHGESLEWIGGIDPNTGGATYNQKFKGQATLTADKSSSTAYMELRSLTSEDSAVYYCARRRRYYGYALDYWGQGTSVTVSS scFv (part 2 of 2), part: DVLMTQTPLSLPVSLGDQASISCRSSQNIIHSNGNTYLEWYLQKPGQSPKLLIYKVSNRFSGVPDRFTGSGSGTDFTLKISRVEAEDLGVYFCSQSTHVPFTFGGGTKLEIKR
Reported value: 70.6%

Okay, now this binder:
Kindly note the recorded p-STAT3 inhibition (%), IL-21 induced, Ramos B cells, flow cytometry for SM-05F anti-γc ScFv (scFv, part only; not given: linker and E-tag, not shown: small tags and cut ends) scFv (part 1 of 2), part: EVQLQQSGPELVKPGASVKIFCKTSGYTFTEYTMHWVKQSHGESLEWIGGIDPNTGGVTYNQKFKGKATLTADKSSSTAYMELRSLTSEDSAVYYCARRRRYYGYALDYWGQGTSVTVSS scFv (part 2 of 2), part: DVLMTQTPLSLPVSLGDQASISCRSSQSIVHNNGNTYLEWYLQKPGQSPKLLIYKVSNRFFGVPDRFSGSGSGTYFTLKISRVEAEDLGVYYCFQGSHVPWTFGGGTKLEIKR , which is 79%
